# testSystem: Human CYP17 (Homo sapiens (Human), UniProt P05093)
# Sequence (P05093 whole entry): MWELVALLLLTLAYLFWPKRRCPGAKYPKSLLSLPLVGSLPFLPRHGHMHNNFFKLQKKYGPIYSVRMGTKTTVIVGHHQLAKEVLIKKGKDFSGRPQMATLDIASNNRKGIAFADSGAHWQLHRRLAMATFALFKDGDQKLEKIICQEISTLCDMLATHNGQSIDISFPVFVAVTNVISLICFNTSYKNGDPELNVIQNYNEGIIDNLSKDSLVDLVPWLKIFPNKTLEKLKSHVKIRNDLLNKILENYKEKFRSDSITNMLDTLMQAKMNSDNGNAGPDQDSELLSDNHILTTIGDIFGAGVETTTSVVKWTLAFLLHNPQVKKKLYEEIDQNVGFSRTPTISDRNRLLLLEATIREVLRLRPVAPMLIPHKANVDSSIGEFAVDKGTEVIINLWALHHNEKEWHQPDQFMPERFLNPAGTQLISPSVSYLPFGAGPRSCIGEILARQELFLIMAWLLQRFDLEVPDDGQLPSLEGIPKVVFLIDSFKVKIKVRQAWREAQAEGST
pIC50: −log10 of the molar value.
The entries below are paired with their reported pIC50.
quantity: pIC50

> print(dat)
                                 smiles  quantity  measuredvalue
1   FC(F)(F)Cn1cnc2c(-c3cnccc3Cl)cccc21     pIC50           6.44
2    CCOc1ncncc1-c1cccc2c1ncn2CC(F)(F)F     pIC50           6.87
3      Cc1ccncc1-c1cccc2c1ncn2CC(F)(F)F     pIC50           7.92
4  Nc1ncncc1-c1cccc2c1ncn2-c1ccc(F)cc1F     pIC50           6.10
5          Cc1ccncc1-c1cccc2c1ncn2C1CC1     pIC50           6.40
6      Cc1ccncc1-c1cccc2c1ncn2-c1cccnn1     pIC50           6.60
7      Cc1ccncc1-c1cccc2c1ncn2-c1cnccn1     pIC50           7.43
8   Cc1ccncc1-c1cccc2c1ncn2-c1cccc(F)n1     pIC50           7.96
9      Cc1ccncc1-c1cccc2c1ncn2-c1ccncn1     pIC50           6.18
